Numbers sourced from patent US20250215011A1.

molecular target: Human Cav3.1 (Homo sapiens (Human), UniProt O43497); assay: Cav3.1 automated patch clamp assay (SyncroPatch 384PE), HEK-293 natClytin/TASK1+Cav3.1 cell line; format: cell-based; conditions: Table 2, HEK-293 natClytin/TASK1+Cav3.1 cells
Sequence (O43497 whole entry): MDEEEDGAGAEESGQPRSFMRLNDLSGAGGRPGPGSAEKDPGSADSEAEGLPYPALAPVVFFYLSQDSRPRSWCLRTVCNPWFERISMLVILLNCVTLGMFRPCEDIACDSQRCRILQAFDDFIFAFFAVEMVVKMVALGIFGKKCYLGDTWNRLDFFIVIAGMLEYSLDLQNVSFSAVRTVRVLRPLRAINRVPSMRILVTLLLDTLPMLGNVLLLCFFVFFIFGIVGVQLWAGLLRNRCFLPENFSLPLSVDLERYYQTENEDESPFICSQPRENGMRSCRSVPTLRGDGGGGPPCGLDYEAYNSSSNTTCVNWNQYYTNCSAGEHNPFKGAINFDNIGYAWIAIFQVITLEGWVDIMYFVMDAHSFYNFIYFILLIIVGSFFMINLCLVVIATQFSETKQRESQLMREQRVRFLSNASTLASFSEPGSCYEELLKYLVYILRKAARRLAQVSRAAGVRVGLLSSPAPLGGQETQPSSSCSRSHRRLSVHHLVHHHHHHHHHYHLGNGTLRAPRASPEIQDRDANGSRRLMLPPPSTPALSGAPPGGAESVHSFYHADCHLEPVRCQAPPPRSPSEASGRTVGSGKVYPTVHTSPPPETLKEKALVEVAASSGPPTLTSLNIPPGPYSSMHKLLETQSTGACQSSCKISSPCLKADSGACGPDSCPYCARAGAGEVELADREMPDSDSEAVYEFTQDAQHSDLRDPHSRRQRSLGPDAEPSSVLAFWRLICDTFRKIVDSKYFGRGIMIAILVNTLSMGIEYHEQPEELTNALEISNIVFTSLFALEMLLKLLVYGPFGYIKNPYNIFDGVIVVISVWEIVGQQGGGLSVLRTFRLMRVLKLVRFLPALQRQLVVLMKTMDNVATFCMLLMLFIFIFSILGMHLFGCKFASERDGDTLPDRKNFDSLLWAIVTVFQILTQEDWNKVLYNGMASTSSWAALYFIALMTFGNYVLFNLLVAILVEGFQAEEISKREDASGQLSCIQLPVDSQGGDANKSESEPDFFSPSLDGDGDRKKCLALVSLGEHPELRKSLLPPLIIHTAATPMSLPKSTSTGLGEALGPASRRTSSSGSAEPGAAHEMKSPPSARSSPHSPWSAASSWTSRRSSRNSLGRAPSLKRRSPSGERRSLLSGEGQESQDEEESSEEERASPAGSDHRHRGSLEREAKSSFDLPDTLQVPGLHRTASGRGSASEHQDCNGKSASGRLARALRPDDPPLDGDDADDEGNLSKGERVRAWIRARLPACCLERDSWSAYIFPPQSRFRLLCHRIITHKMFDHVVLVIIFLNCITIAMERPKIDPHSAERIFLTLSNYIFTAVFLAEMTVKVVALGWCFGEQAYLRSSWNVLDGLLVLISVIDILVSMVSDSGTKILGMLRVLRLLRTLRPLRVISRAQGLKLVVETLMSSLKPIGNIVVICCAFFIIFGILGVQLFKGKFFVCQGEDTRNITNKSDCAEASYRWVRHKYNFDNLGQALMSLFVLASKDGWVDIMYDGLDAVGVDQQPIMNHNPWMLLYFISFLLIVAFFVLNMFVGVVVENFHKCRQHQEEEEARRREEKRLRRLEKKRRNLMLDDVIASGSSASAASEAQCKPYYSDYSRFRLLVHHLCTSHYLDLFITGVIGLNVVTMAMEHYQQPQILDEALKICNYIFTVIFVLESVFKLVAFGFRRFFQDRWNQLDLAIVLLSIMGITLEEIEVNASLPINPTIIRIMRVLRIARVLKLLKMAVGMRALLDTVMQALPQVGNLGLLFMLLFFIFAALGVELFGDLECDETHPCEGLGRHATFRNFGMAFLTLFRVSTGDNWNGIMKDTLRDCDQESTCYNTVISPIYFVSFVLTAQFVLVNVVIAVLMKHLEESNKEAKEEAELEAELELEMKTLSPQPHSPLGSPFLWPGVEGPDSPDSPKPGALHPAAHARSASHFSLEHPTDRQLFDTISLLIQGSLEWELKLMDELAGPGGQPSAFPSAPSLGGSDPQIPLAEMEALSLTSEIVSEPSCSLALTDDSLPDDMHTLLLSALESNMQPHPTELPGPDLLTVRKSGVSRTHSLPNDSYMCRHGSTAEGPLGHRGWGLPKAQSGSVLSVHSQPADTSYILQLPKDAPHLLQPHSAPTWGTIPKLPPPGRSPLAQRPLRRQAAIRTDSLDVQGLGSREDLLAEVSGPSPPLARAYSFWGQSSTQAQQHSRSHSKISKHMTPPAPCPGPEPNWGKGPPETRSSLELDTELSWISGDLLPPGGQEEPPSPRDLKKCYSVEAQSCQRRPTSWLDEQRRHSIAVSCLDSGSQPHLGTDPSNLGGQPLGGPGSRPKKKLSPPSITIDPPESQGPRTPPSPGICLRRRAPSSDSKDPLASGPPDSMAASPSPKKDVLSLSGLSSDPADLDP
measured-parameter: IC50

Illustrative cases are given below, each with its answer.
Query: # input molecule: `O=C(CN1CC2(C1)CN(Cc1cccc(C(F)F)c1)C2)Nc1cc(F)cc(Cl)c1` ; wanted: its IC50
Result: < 1 µM

Query: # input molecule: `COc1cccc(CN2CC3(CN(CC(=O)Nc4cc(F)cc(Cl)c4)C3)C2)c1` ; wanted: its IC50
Result: 1 to 10 µM

Query: # input molecule: `CC(C)(C)CCCN1CC2(C1)CN(Cc1nc3c(Cl)cc(F)cc3[nH]1)C2` ; wanted: its IC50
Result: < 1 µM

Query: # input molecule: `CC(C)(C)NC(=O)CN1CC2(C1)CN(Cc1nc3cc(F)cc(Cl)c3[nH]1)C2` ; wanted: its IC50
Result: < 1 µM

Query: # input molecule: `O=C(CN1CC2(C1)CN(Cc1cccc(Cl)c1)C2)Nc1cc(F)cc(Cl)c1` ; wanted: its IC50
Result: < 1 µM

---
Query: # input molecule: `O=C(CN1CC2(C1)CN(Cc1coc(-c3ccccc3)n1)C2)Nc1cc(F)cc(Cl)c1` ; wanted: its IC50
Result: < 1 µM

Query: # input molecule: `Cc1cc(F)cc2[nH]c(CN3CC4(CN(CC(=O)NC(C)(C)C)C4)C3)nc12` ; wanted: its IC50
Result: 1 to 10 µM

Query: # input molecule: `CCC(C)(C)NC(=O)CN1CC2(C1)CN(Cc1nc3c(Cl)cc(F)cc3[nH]1)C2` ; wanted: its IC50
Result: < 1 µM

Query: # input molecule: `O=C(CN1CC2(C1)CN(Cc1nc(-c3ccccc3)co1)C2)Nc1cc(F)cc(Cl)c1` ; wanted: its IC50
Result: 1 to 10 µM

Query: # input molecule: `CC1(NC(=O)CN2CC3(CN(CC(=O)Nc4cc(F)cc(Cl)c4)C3)C2)CCC1` ; wanted: its IC50
Result: < 1 µM

* * *

Molecular target: Human Cav3.1 (Homo sapiens (Human), UniProt O43497)
Assay: Cav3.1 automated patch clamp assay (SyncroPatch 384PE), HEK-293 natClytin/TASK1+Cav3.1 cell line
Assay type: cell-based
Conditions: Table 1, HEK-293 natClytin/TASK1+Cav3.1 cells
Experimental: Inhibition of the T-type voltage gated calcium channel (Cav3.1) was evaluated using a HEK-293 natClytin/TASK1+Cav3.1 cell line. Currents were recorded using the SyncroPatch 384PE automated, patch clamp system. […] Current was recorded in whole cell configuration from a population of cells. […] Currents were recorded at room temperature. […] Current amplitude (pA) was measured in the peak 1 and 2. […]
pIC50: −log10 of the molar value.
Collected pIC50 values appear next to each entry.

Illustrative cases are given below, each with its answer.
Query: Please provide the recorded pIC50 for CC(C)(C)NC(=O)CN1CC2(CN(CC(=O)Nc3cccc(Cl)c3F)C2)C1 [Example 8] , tested on Human Cav3.1 (Homo sapiens (Human), UniProt O43497).
Result: ≤ 5.00

Query: Please provide the recorded pIC50 for CC(C)(C)NC(=O)CN1CC2(CN(CC(=O)Nc3ccc(F)c(Cl)c3)C2)C1 [Example 5] , tested on Human Cav3.1 (Homo sapiens (Human), UniProt O43497).
Result: 5.00 to 6.00

Query: Please provide the recorded pIC50 for Cc1cc(F)cc(NC(=O)CN2CC3(C2)CN(CC(=O)NC(C)(C)C)C3)c1 [Example 4] , tested on Human Cav3.1 (Homo sapiens (Human), UniProt O43497).
Result: 5.00 to 6.00

Query: Please provide the recorded pIC50 for CC(C)(C)NC(=O)CN1CC2(CN(CC(=O)Nc3cc(Cl)cc(Cl)c3)C2)C1 [Example 1] , tested on Human Cav3.1 (Homo sapiens (Human), UniProt O43497).
Result: > 6.00

Query: Please provide the recorded pIC50 for COc1cc(F)cc(NC(=O)CN2CC3(C2)CN(CC(=O)NC(C)(C)C)C3)c1 [Example 2] , tested on Human Cav3.1 (Homo sapiens (Human), UniProt O43497).
Result: 5.00 to 6.00

Query: Please provide the recorded pIC50 for CC(C)(C)NC(=O)CN1CC2(CN(CC(=O)Nc3cccc(Cl)c3)C2)C1 [Example 6] , tested on Human Cav3.1 (Homo sapiens (Human), UniProt O43497).
Result: 5.00 to 6.00

---
Query: Please provide the recorded pIC50 for Cc1cc(NC(=O)CN2CC3(C2)CN(CC(=O)NC(C)(C)C)C3)nn1-c1ccccc1 [Example 7] , tested on Human Cav3.1 (Homo sapiens (Human), UniProt O43497).
Result: ≤ 5.00

Query: Please provide the recorded pIC50 for CC(C)(C)NC(=O)CN1CC2(CN(CC(=O)Nc3cc(F)cc(C(F)F)c3)C2)C1 [Example 3] , tested on Human Cav3.1 (Homo sapiens (Human), UniProt O43497).
Result: 5.00 to 6.00
